Value source: PubChem BioAssay

Each entry below lists one item and its recorded viability value.
Assay: reduced viability of SK-BR-3 breast cancer cells – cell-based, 24 h, human, pilot screen (AID 572);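 note: compound exposure lasted between 18 and 24 h rather than exactly 24 h; 100% = carrier-treated control wells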
Conditions: SK-BR-3 viability, CellTiter-Glo luminescence, at 10 µM, active compounds read low

Compound | viability [%]
Nc1ccc(C2(c3ccc(N)cc3)CN3CCC2CC3)cc1 | 120
CN(C)[C@@H]1C(=O)C(C(N)=O)=C(O)[C@@]2(O)C(=O)C3=C(O)c4c(O)ccc(Cl)c4[C@@](C)(O)C3C[C@@H]12 (stereo partly drawn) | 119
CNP1(NC)=NC(C(F)(F)F)=NC(C(F)(F)F)=N1 | 95
Cn1c(=O)cc(SCC(=O)N2CCC3(CC2)OCCO3)c2ccc(Cl)cc21 | 116
Cn1c(=O)cc(OCC(=O)N2CCN(C3CCCCC3)CC2)c2ccccc21 | 87
O=C(C1CCCN(c2nnc(-n3cccc3)s2)C1)N1CCC2(CC1)OCCO2 (stereo not drawn) | 83
CP(C)(=O)CCC(=O)O | 101
CN(C)c1cc(N)c2c(n1)CCC2 (tested in a mixture with another compound) | 113
COc1ccc(OC)c(C2=NOC(C(=O)N3CCC4(CC3)OCCO4)C2)c1 (stereo not drawn) | 106
CCNc1ccc(P(=S)(N(C)C)N(C)C)cc1 | 91
CCCCn1c(O)c(C(C)=NCCc2ccccc2)c(=O)[nH]c1=O | 88.5
C=CCOC(=O)COc1cc(C)cc2oc(=O)c3c(c12)CCC3 | 81
CCCCOc1ccc(CN2CCN(CCO)CC2)cc1 | 74
O=C(O)C1(c2ccc(Cl)cc2)CCC1 | 109
CC(=O)C1C(=O)NC23CCCCC2C1c1ccccc1O3 (stereo not drawn) | 88
CCOc1ccc(Br)c(C2(O)CC(C)N(C)CC2C)c1 (stereo not drawn) | 80.5
CC(C)[C@@]1(NC(=O)[C@@H]2C[C@@H]3c4cccc5[nH]cc(c45)C[C@H]3N(C)C2)O[C@@]2(O)[C@@H]3CCCN3C(=O)[C@H](Cc3ccccc3)N2C1=O | 111
CN(C)[C@@H]1C(=O)C(C(N)=O)=C(O)[C@@]2(O)C(=O)C3=C(O)c4c(O)cccc4[C@@](C)(O)[C@H]3[C@H](O)[C@@H]12 | 115
c1ccc(C2NCc3ccccc3-n3cccc32)cc1 (stereo not drawn) | 86
Cc1ccc(C(=O)C2CN3CCC2CC3)cc1 (stereo not drawn) | 93
O=C(Cc1ccccc1)OC(COCc1ccccc1)CN1CCOCC1 (stereo not drawn) | 83
CCn1c(C)c(C(=O)O)c2cc(OC)ccc21 | 88.5
COc1ccc(C2NCc3ccc4c(c3-n3cccc32)OCO4)cc1O (stereo not drawn) | 110
O=C(CN1C2CCC1CC(O)(c1cccnc1)C2)Nc1ccc2c(c1)OCO2 (stereo not drawn) | 72
Cc1cccc(C2=NCC(=O)N(CC(=O)NCc3ccco3)c3sc4c(c32)CCCC4)c1 | 102
CCCCN1C(=O)NC(=O)C2(Cc3c(nc4c(C)cccn4c3=O)N3CCc4ccccc4C32)C1=O (stereo not drawn) | 111
CC(C)=CCSc1nnc([C@@H](N)Cc2c[nH]c3ccccc23)o1 | 102
O=C(c1ccc2nc(-c3ccco3)c(-c3ccco3)nc2c1)N1CCC2(CC1)OCCO2 | 93
COc1ccc(CN2CCN(C(=O)Cc3ccccc3)CC2)c(OC)c1 | 93
Oc1ccc(C2NCc3ccccc3-n3cccc32)cc1Cl (stereo not drawn) | 98.5
O=C1CC(c2ccccc2)CC(O)=C1C=NCCN1CCN(C(=O)Cc2ccccc2)CC1 (stereo not drawn) | 122
Cc1ccc2nc(N3CCN(C)CC3)[nH]c2c1 | 111
O=c1[nH]c2ccccc2n1CCCN1CCC(n2c(=O)[nH]c3cc(Cl)ccc32)CC1 | 91

----------
Biological target: Pantothenate synthetase (Mycobacterium tuberculosis (strain ATCC 25618 / H37Rv)) (UniProt P9WIL5)
Sequence (P9WIL5 whole entry, looked up): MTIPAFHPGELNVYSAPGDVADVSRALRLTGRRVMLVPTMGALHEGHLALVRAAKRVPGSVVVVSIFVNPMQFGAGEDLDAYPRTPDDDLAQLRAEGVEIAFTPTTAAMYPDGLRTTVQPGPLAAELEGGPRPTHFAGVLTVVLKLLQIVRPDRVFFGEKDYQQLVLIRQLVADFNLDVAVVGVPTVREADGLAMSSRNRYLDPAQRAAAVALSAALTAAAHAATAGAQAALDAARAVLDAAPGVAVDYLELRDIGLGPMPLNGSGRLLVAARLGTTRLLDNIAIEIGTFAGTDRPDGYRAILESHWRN
Assay: Coupled enzyme confirmation of inhibitors against recombinant Mtb PanC (AID 375);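 note: 0% = full reaction with vehicle and 100% = no enzyme background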
Conditions: coupled enzyme assay; at 10 µM, active compounds read high
Active and inactive are the calls of the source. The rule behind the calls is not given here.
Each entry below lists one item and its recorded inhibition value.
Endpoint name: inhibition

Smiles code | Endpoint name | Result
CCCCN(Cc1cc2cc(OC)ccc2[nH]c1=O)C(=O)COc1ccccc1 | inhibition | 2% (inactive)
NS(=O)(=O)c1cc2c(cc1C(F)(F)F)NCNS2(=O)=O | inhibition | 2% (inactive)
CN(C)[C@@H]1C(=O)C(C(N)=O)=C(O)[C@@]2(O)C(=O)C3=C(O)c4c(O)cccc4[C@@](C)(O)[C@H]3C[C@@H]12 | inhibition | 2% (inactive)
CN1CCC(NC(=O)c2cccs2)CC1 | inhibition | 2% (inactive)

----------
Each entry below lists one item and its recorded inhibition value.
Target: Pantothenate synthetase (Mycobacterium tuberculosis (strain ATCC 25618 / H37Rv)) (UniProt P9WIL5)
Assay: Coupled enzyme confirmation of inhibitors against recombinant Mtb PanC (AID 375);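 note: 0% = full reaction with vehicle and 100% = no enzyme background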
Settings: coupled enzyme assay; at 10 µM, active compounds read high

Molecule | inhibition / %
COCCOC(=O)C1=C(C)Nc2ncnn2C1c1ccc(F)cc1 (configuration not stated) | 0
CCCN(CCC)CCNC(=O)C(NS(=O)(=O)c1ccc2c(c1)CCC(=O)N2)c1ccccc1 (configuration not stated) | 0
O=C(CP(=O)(c1ccccc1)c1ccccc1)N1CCCCC1 | 6
N=c1nc(N2CCCCC2)cc(N)n1O | 0
O=C(COC(=O)c1ccccc1C(=O)c1ccccc1)c1ccco1 | 0
Cc1cc(OCC(O)CN2CCN(CCO)CC2)ccc1C(C)C (configuration not stated) | 8
COc1ccc(OCc2nc(C#N)c(N3CCN(c4ccc(OC)cc4)CC3)o2)cc1 | 2
Cc1ccc(S(=O)(=O)N2CCCC(C(=O)NC3=NCCS3)C2)cc1 (configuration not stated) | 12
O=c1c2cc(N3CCOCC3)ccc2[nH]c(=S)n1CCCN1CCCCC1 | 1
O=C(O)Cn1cc(C(=O)c2ccco2)c2ccccc21 | 4
COc1ccc(CCNC(=O)C2CC(=O)N(c3ccccc3)C2)cc1OC (configuration not stated) | 0
COc1ccc(NC(=O)CCCN2C(=O)C3C4C=CC(C4)C3C2=O)c(OC)c1 (configuration not stated) | 2
O=C(NCc1ccc(F)cc1)c1cc(-c2ccco2)on1 | 6
COC(=O)C1=C(N)OC2=C(C(=O)CCC2)C1c1cccs1 (configuration not stated) | 0
Cn1c(=O)cc(SCC(=O)NCC2CCCO2)c2ccc(Cl)cc21 (configuration not stated) | 10
CCn1c(Cc2ccccc2)nnc1SCC(=O)Nc1ccc(N2CCOCC2)c(Cl)c1 | 6
CN(C)/C=N/c1ncnc2c1cnn2-c1ccc(C(F)(F)F)cn1 | 3
COc1ccc(NC(=O)N2CCC(c3nc(-c4cccs4)no3)CC2)cc1 | 0
COC(=O)c1ccccc1NC(=O)c1ccc(COc2ccccc2)o1 | 0
COc1ccc(S(=O)(=O)NC(CC(=O)NCc2ccco2)c2ccco2)cc1 (configuration not stated) | 3
Cc1ccc(Cc2c(C)nc3c(C(=O)O)cnn3c2C)cc1 | 4
COc1cccc(-c2noc(-c3cccs3)n2)c1 | 1
Cc1ccc(CCNC(=O)C2CCN(S(=O)(=O)c3ccc4c(c3)CCC(=O)N4)CC2)cc1 | 0
O=S(=O)(c1ccc(S(=O)(=O)N(Cc2ccco2)Cc2ccccc2Cl)cc1)N1CCCC1 | 0
CC(C)CC(=O)Nc1ccccc1-c1nnn(CC(=O)N2CCOCC2)n1 | 0
Clc1ccc(COC(Cn2ccnc2)c2ccc(Cl)cc2Cl)cc1 (configuration not stated) | 2
CN1CCN(C(=O)c2ccc(CS(=O)(=O)c3c(Cl)cccc3Cl)o2)CC1 | 16
Cc1cc(NC(=O)C23CCC(C)(C(=O)O2)C3(C)C)no1 (configuration not stated) | 1
CC(C)(C)N(Cc1cc2ccccc2[nH]c1=O)C(=O)C1CCCCC1 | 3
CO[C@H]1C[C@@H]2CC[C@@H](C)[C@@](O)(O2)C(=O)C(=O)N2CCCC[C@H]2C(=O)O[C@H]([C@H](C)C[C@@H]2CC[C@@H](O)[C@H](OC)C2)CC(=O)[C@H](C)C=C(C)[C@@H](O)[C@@H](OC)C(=O)[C@H](C)C[C@H](C)C=CC=CC=C1C | 0
Cc1cccc(NC(=O)C2CCCN(C(=O)Nc3ccccc3)C2)c1C (configuration not stated) | 2
CCc1nccn1S(=O)(=O)c1ccc2ccc(C)cc2c1 | 3

----------
Target: Pantothenate synthetase (Mycobacterium tuberculosis (strain ATCC 25618 / H37Rv)) (UniProt P9WIL5)
Experiment: Coupled enzyme confirmation of inhibitors against recombinant Mtb PanC (AID 375);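 note: 0% = full reaction with vehicle and 100% = no enzyme background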
Settings: coupled enzyme assay; at 10 µM, active compounds read high
Label condition met for high-side inhibition (at or above 2%) and condition not met for low-side inhibition (below it).

Compound | Assigned class
O=C(CSCc1ccccn1)Nc1ccccc1 | condition not met
CCCOC(=O)c1ccc(-c2c(C)noc2-c2ccc(OC)cc2O)o1 | condition not met
Cc1cc(Cl)ccc1OCCCC(=O)N1CCOCC1 | condition not met
CCCCCCOc1ccc(CN2CCN(C)CC2)cc1 | condition not met
C#CCN1C(=O)C(O)(CC(=O)c2cc(OC)ccc2OC)c2ccccc21 (stereo not given) | condition met
CCOc1ccc(Cn2nnc(C(=O)Nc3ccc(OC)cc3OC)c2N)cc1 | condition not met
CC(=O)c1cccc(NC(=O)N2CCCc3ccccc32)c1 | condition not met
c1ccc(Cc2ccc(OCCn3cncn3)cc2)cc1 | condition not met
O=C(CSc1nc2ccccc2o1)N1CCN(c2ccc(Cl)cc2)CC1 | condition not met
C=CCOc1ccc(CN(C)CC(=O)N(CC(C)C)c2c(N)n(CC(C)C)c(=O)[nH]c2=O)cc1 | condition not met
Nc1nc(-c2ccccc2)cc(C(F)(F)F)n1 | condition met
Cn1c(C(=O)NCC2CCCO2)cc2c(=O)n(C)c3ccccc3c21 (stereo not given) | condition not met
Fc1ccccc1C(c1nnnn1Cc1ccc2c(c1)OCO2)N1CCN(Cc2ccccc2)CC1 (stereo not given) | condition met
Cc1n[nH]c(C)c1S(=O)(=O)Nc1ccc2c(c1)OCCO2 | condition not met
CCCCC(CC)C(=O)Nc1ccc(Cl)cn1 (stereo not given) | condition met
CN(C)c1cccc(C(=O)OCC(=O)NCc2ccco2)c1 | condition not met
CCOC(=O)N1CCC(NC(=O)c2cnn3ccccc23)CC1 | condition not met
O=C(Cn1cc2c(n1)CCCCC2)N1CCc2ccccc2C1 | condition not met
CN(Cc1ccccc1)S(=O)(=O)c1ccc(S(=O)(=O)N2CCN(CCC#N)CC2)cc1 | condition not met
CC(C(=O)N1CCc2ccccc21)N1CCc2ccccc2C1 (stereo not given) | condition met
CCOC(=O)CC(NS(=O)(=O)c1ccc(NC(C)=O)cc1)c1ccc(OCC)cc1 (stereo not given) | condition met
CC[N+](C)(CC)CCOC(=O)C(O)(c1ccccc1)C1CCCCC1 (stereo not given) | condition not met
CCCS(=O)(=O)N1CCN(C(=O)c2cccs2)CC1 | condition not met
